# MEASUREMENT PROTOCOL: Binding affinity to AT1 in rabbit aorta
# Assay type: tissue-based, Oryctolagus cuniculus
RECORDED METRIC: IC50

Can you share its IC50? I mean this molecule: CCCCc1nc2cc3ccccc3cc2c(=O)n1Cc1ccc(-c2ccccc2C(=O)O)cc1
10 nM

# repeat for CCCCc1nc2ccc(I)cc2c(=O)n1Cc1ccc(-c2ccccc2-c2nn[nH]n2)cc1
≥ 1.3 nM

# repeat for CCCCc1nc2ccc(N)cc2c(=O)n1Cc1ccc(-c2ccccc2-c2nn[nH]n2)cc1
≥ 1.3 nM

# repeat for CCCCc1nc2cc(OC)c(OC)cc2c(=O)n1Cc1ccc(-c2ccccc2-c2nn[nH]n2)cc1
≥ 1.3 nM

# repeat for CCCCCc1nc2ccc(C)cc2c(=O)n1Cc1ccc(-c2ccccc2-c2nn[nH]n2)cc1
≥ 1.3 nM

# repeat for CCCCc1nc2cc(Cl)ccc2c(=O)n1Cc1ccc(-c2ccccc2-c2nn[nH]n2)cc1
≥ 1.3 nM

====

Hi there, I'd appreciate the recorded Activity for every entry that follows.
# System: Rattus norvegicus
# MEASUREMENT PROTOCOL: Inhibition of AII induced mean arterial blood pressure in rat assessed as vasoconstrictor at 1 mg/kg, po
# Assay type: functional
I only need the number, in mmHg, no unit after it.

Can you share its Activity? I mean this compound: CCCCc1nc2ccc([C@]3(CC)C[C@H]4CCCN4O3)cc2c(=O)n1Cc1ccc(-c2ccccc2-c2nn[nH]n2)cc1
55

# repeat for CCCCc1nc2ccc([C@H]3C[C@H]4CC[C@H](C)N4O3)cc2c(=O)n1Cc1ccc(-c2ccccc2-c2nnn[nH]2)cc1
55

# repeat for CCCCc1nc2ccc([C@@]3(C)C[C@H]4CC[C@H](C)N4O3)cc2c(=O)n1Cc1ccc(-c2ccccc2-c2nnn[nH]2)cc1
55

====

# Tested on: Mus musculus
# MEASUREMENT PROTOCOL: Analgesic activity in […] albino mouse at 20 mg/kg, po measured after 2 hrs by Tail-Flick technique relative to control
# Format: functional
Hi there, I'd appreciate the recorded Activity for every entry that follows.
I only need the number, in %, no unit after it.

Short answer please: Activity, Mus musculus, entry Cc1nc2ccccc2c(=O)n1NC(=S)N1CCCC1
65

# repeat for COc1ccccc1C1SCC(=O)N1NCC(=O)Cc1nc2ccccc2c(=O)n1-c1c(C)[nH]c2ccccc12 (stereo not drawn)
80

# repeat for CCCCc1nc2ccccc2c(=O)n1NC(=S)N1CCCC1
73
